These data points were gathered from patent US9962369B2.

assay: Transdermal delivery of melatonin: plasma level of melatonin after applying composition to skin of a subject; settings: human, plasma, topical, Plasma level of melatonin, Proline hexyl ester hydrochloride 296.94 mM, 0.60 mL applied to skin, 4 hr after transdermal administration
metric: concentration at 4 h

Look at this compound and give its reported concentration at 4 h. COc1ccc2[nH]cc(CCNC(C)=O)c2c1 [Melatonin]
1.3 ng/mL

====

assay: Transdermal delivery of melatonin: plasma level of melatonin after applying composition to skin of a subject; settings: human, plasma, topical, Plasma level of melatonin, salt of tyrosine isopropyl ester, A− = Benzoate ion, 202.65 mM, 0.30 mL applied, 0 hr after transdermal administration
metric: concentration at 0 h (ng/mL)
Numeric only. Scale: ng/mL

Look at this molecule and give its reported concentration at 0 h. `COc1ccc2[nH]cc(CCNC(C)=O)c2c1`
0
